Target: T1, mouse GPRC5D (mouse, UniProt Q9JIL6 1-344)
T1 construct: whole, on cells; HEK293T-mGPRC5D cells; also called mGPRC5D; murine GPRC5D
T1 sequence (looked up): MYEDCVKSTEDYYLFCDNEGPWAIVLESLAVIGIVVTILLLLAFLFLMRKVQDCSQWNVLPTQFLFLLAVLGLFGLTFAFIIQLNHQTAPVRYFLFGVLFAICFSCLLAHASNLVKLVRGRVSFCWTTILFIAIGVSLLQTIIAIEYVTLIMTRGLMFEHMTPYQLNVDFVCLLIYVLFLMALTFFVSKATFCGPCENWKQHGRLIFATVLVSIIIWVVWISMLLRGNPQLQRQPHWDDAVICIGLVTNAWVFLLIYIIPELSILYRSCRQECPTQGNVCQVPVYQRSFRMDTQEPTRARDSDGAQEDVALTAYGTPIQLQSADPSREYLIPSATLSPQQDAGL
Experiment: FACS, HEK293T-mGPRC5D cells
readout-kind: EC50 (nM)
// return numeric value only (unit: nM, not printed)

Worked set:
>>> reported_result("ch90G6H3 (antibody, V domains shown) VH: QAYLQQSGAELVRSGASVKMSCKASGYTFTSYIMHWVKQTPGQGLEWIGYIYPGNGGTNYNQKFKDKATLSADTSSSTAYMQINSLTSEDSAVYFCARWGLRQGFAYWGQGTLVSVSA VL: DIVMTQSQKFMSTSVGDRVSVTCKASQNVGGNVAWYQQKPGQSPKALIYSTSYRNSGVPDRFTGSGSGTDFTLTISNVQSEDLAEYFCQQYNSYPFTFGSGTKLEIR")
12.3
>>> reported_result("ch96C9E7 (antibody, V domains shown) VH: EVQLQQSGPELVKPGASVKMSCKASGYTFTYYILHWVKQKPGQGLEWIGYFNPYNDGNKFNERFRGKATLTSDKSSSTAYMELNSLTSEDSAVYFCARGGVRRYFDVWGAGTTVTVSS VL: DIQMTQSPSSLSASLGERVSLTCRASQDIGSNLNWLQQEPDGTIKRLISATFSLDSGVPKRFSGSRSGSDYSLTISSLESEDFVNYYCLQYASFPYTFGGGTKLEIK")
18.5
>>> reported_result("ch15D6G2 (antibody, V domains shown) VH: EVQLVESGGDLVKPGGYLRLSCAASGFTFSSHGMSWVRQTPDKRLEWVATISSGGRNTYYPDSVKGRFTISRDNAKNILYLQMSSLKSEDTAMFYCTRHSGDAMDYWGQGTSVTVSS VL: DILLTQSPAILSVSPGERVSFSCRASQSIGTNIHWYQQRTNGSPRLLIKYASESISGIPSRFSGSGSGTDFTLSINSVESEDIADYYCQQSKSWPTFGGGTKLEIK")
592

Prompt: Give EC50 for the following binder: ch89F11E3 (antibody, V domains shown) VH: QVQLQQSGAELARPGASVKMSCKASGYTFTSSTIHWVKQRPGQGLAWIGYIVPSTGYTNYNQKFKDKATLTADKSSSTAYMQLTSLTSEDSAVYYCARSDGYPFGYSMAYWGQGTSVTVSS VL: DIQMNQSPSSLSASLGDTITITCHASQNINVWLSWYHQKPGNIPKLLIYKASNLHTGVPSRFSGSGSGTGFTLTISRLQPEDIATYYCQQGQSYPFTFGSGTKLEIK
Response: 14.2

Prompt: Tell me EC50 reported for ch108C4C12 (antibody, V domains shown) VH: EVQLQQSGPELVKPGASVKMSCKASGYTFTSYVIHWVKQKTGQGLEWIGYFNPYNDGTKYNEEFKGKATLTSDKSSNTAYMELNSLTSDDSAVYFCARGGVRRYFDVWGAGTTVTVSS VL: DIQMTQSPSSLSASLGERVSLTCRASQDIGSNLNWLQQEPDGTIKRLIYATFGLDSGVPKRFSGSRSGSDYSLTISSLESEDFVDYYCQQYASFPYTFGGGTKLEIK
Response: 109

# credit: patent US20250368734A1
